Experimental Target: UniProt:P35414
Procedure Summary: biochemical
Reported Conditions: [35S]GTPγS binding, CHO membranes expressing human APJ receptor; read-out: Activity hAPJ SPA EC50 IP
pEC50: −log10 of the molar value.
# pEC50 annotations
Measurement Kind: pEC50

# Molecule, Measurement Kind, Recorded Measurement
rows = [
    ("COc1cccc(OC)c1-n1c(NS(=O)(=O)[C@@H](C)[C@H](C)c2ncc(Cl)cn2)nnc1-c1cnn2c1CCC2", "pEC50", 10.05),
    ("COc1cccc(OC)c1-n1c(NS(=O)(=O)CCc2ccc(Cl)cc2)nnc1-c1cscn1", "pEC50", 7.59),
    ("COCc1nc(-c2nnc(NS(=O)(=O)CCc3ccc(Cl)cc3)n2-c2c(OC)cccc2OC)cs1", "pEC50", 7.01),
    ("COc1cccc(OC)c1-n1c(NS(=O)(=O)[C@@H](C)[C@H](C)c2ncc(C#N)cn2)nnc1-c1ccn(C(F)F)n1", "pEC50", 9.39),
    ("COc1cccc(OC)c1-n1c(NS(=O)(=O)[C@H](C)[C@H](O)c2ncc(C)cn2)nnc1-c1nc(C)cs1 (single isomer, unassigned) [Example 314.0]", "pEC50", 7.85),
    ("COc1cccc(OC)c1-n1c(NS(=O)(=O)[C@H](C)Cc2ccc(C#N)cn2)nnc1-c1nc(C)cs1 (single isomer, unassigned) [Example 11.0]", "pEC50", 9.10),
    ("CO[C@H](c1ncc(Cl)cn1)[C@H](C)S(=O)(=O)Nc1nnc(-c2cnn3c2CCC3)n1C1CC1", "pEC50", 7.96),
    ("COc1ccc([C@@H](OC)[C@H](C)S(=O)(=O)Nc2nnc(-c3ccn(C)n3)n2-c2c(OC)ncnc2OC)nc1", "pEC50", 8.24),
]

###

Experimental Target: human APJ receptor (Homo sapiens (Human), UniProt P35414)
Sequence (P35414 whole entry): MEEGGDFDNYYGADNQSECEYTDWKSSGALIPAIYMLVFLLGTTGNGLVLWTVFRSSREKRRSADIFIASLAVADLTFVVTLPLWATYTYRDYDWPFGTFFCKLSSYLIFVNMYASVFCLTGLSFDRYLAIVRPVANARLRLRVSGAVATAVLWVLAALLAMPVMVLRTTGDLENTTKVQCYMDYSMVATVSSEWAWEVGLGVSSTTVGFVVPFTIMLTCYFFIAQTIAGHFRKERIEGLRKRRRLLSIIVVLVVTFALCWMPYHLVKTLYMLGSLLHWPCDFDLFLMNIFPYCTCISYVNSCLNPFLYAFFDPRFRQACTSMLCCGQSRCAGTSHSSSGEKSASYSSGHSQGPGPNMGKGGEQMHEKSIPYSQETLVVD
Procedure Summary: biochemical
Reported Conditions: [35S]GTPγS binding, CHO membranes expressing human APJ receptor; read-out: Activity hAPJ SPA EC50 IP
# EC50 annotations

# Smiles, Experimental Target, EC50 / nM
records = [
    ("COc1cccc(OC)c1-n1c(NS(=O)(=O)[C@@H](C)[C@H](C)c2ncc(F)cn2)nnc1-c1cc2n(n1)CCC2", "human APJ receptor (Homo sapiens (Human), UniProt P35414)", 2.5),
    ("COc1ccc(NCCO)cc1-n1c(NS(=O)(=O)CCc2ccc(Cl)cc2)nnc1-c1cccs1", "human APJ receptor (Homo sapiens (Human), UniProt P35414)", 460),
    ("Cc1cnc([C@H](OC(C)C)[C@H](C)S(=O)(=O)Nc2nnc(-c3ccn(C)n3)n2-c2c(F)cccc2F)nc1", "human APJ receptor (Homo sapiens (Human), UniProt P35414)", 1.6),
    ("CO[C@H](c1cnc(C)cn1)[C@H](C)S(=O)(=O)Nc1nnc(-c2ccn(C)n2)n1-c1c(F)cccc1F", "human APJ receptor (Homo sapiens (Human), UniProt P35414)", 54),
    ("CCS(=O)(=O)Nc1nnc(-c2cc([C@@H](O)c3ccc(Cl)cc3S(C)(=O)=O)n(C)n2)n1-c1c(OC)cccc1OC", "human APJ receptor (Homo sapiens (Human), UniProt P35414)", 260),
    ("COc1ccc(N2CCC2=O)cc1-n1c(NS(=O)(=O)CCc2ccc(Cl)cc2)nnc1-c1cccs1", "human APJ receptor (Homo sapiens (Human), UniProt P35414)", 11),
    ("COc1ccc(C#N)cc1-n1c(NS(=O)(=O)CCc2ccc(Cl)cc2)nnc1-c1cccs1", "human APJ receptor (Homo sapiens (Human), UniProt P35414)", 166),
]
